# TESTED TARGET: T1, FinO (F-like plasmid (Escherichia coli), UniProt P29367 1-186)
# T1 sequence: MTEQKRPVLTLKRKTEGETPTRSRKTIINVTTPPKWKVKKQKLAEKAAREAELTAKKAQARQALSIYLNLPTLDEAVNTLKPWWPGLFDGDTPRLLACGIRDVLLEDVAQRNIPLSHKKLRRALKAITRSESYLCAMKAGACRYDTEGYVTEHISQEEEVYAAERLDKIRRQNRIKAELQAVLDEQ
# EXPERIMENT NOTES: EMSA; 25 mM Tris-HCl pH 7.5, 150 mM NaCl, 5% glycerol, 1 mM MgCl2, 1 nM 32P-RNA, 30 min at room temperature; native 6% PAGE in 0.5x TBE at 4 C
# COND: protein: recombinant; tags: His6-TEV site (ENLYFQ/S) N-terminal in the expression construct; label: 32P; terminator hairpin; A-G mismatch below
pKd: −log10 of the molar value.
MEASUREMENT TYPE: pKd

>  <BINDER>
RepX (structured_RNA) RNA: GCAUUGAUUGCCUCCUUUGCAGGCAGUUGGUGGUUAGGCGCUGGCGGGGUCACUACCCCCGCCCUGCGCCGCUCU

>  <RESULT>
7.21

$$$$
